Origin of the recorded values: the supplement of paper PMC10307832

- System: NCI-H2342
- Experimental details: relative viability (nuclei count vs DMSO), 5 days (fraction); higher = more cells survive
- Study conditions: first compound 4 µM
This listing pairs molecules with measured relative viability.
Response field accepts a number only; no unit should be typed.

[[record]]
molecule = "Cc1sc2c(c1C)C(c1ccc(Cl)cc1)=N[C@@H](CC(=O)OC(C)(C)C)c1nnc(C)n1-2 [JQ1] + CC(=O)c1c(C)c2cnc(Nc3ccc(N4CCNCC4)cn3)nc2n(C2CCCC2)c1=O [Palbociclib] (partner 0.5 µM)"
data_value = 0.538


Okay, now this molecule:
State its relative viability: Cc1sc2c(c1C)C(c1ccc(Cl)cc1)=N[C@@H](CC(=O)OC(C)(C)C)c1nnc(C)n1-2 [JQ1] + Cc1cc(Nc2cc(N3CCN(C)CC3)nc(Sc3ccc(NC(=O)C4CC4)cc3)n2)n[nH]1 [Tozasertib] (partner 0.1 µM)
0.336
